- ASSAY DETAILS: Pharmacokinetic interaction in vivo in rats
- ASSAY CONTEXT: Wistar, rat, plasma, iv, 45 mg/kg, CLP, of imipenem, i.v., imipenem + cilastatin, 45 mg/kg for both
TEST READOUT: clearance (mL/min/kg)

{"MOL": "C[C@@H](O)[C@H]1C(=O)N2C(C(=O)O)=C(SCCN=CN)C[C@H]12", "OBSERVED": 8.1}

* * *

- ASSAY DETAILS: Pharmacokinetic interaction in vivo in rats
- ASSAY CONTEXT: Wistar, rat, plasma, iv, 45 mg/kg, AUC0→∞, single administration (alone)

{"COMPOUND": "CC1(C)C[C@@H]1C(=O)N/C(=C\\CCCCSC[C@H](N)C(=O)O)C(=O)O [Cilastatin]", "READOUT UNITS": "µg·h/mL", "AUC(0-inf)": 56.5}
{"COMPOUND": "C[C@@H](O)[C@H]1C(=O)N2C(C(=O)O)=C(SCCN=CN)C[C@H]12 [Imipenem]", "READOUT UNITS": "µg·h/mL", "AUC(0-inf)": 34.8}
